target: Leishmania infantum trypanothione disulfide reductase (LiTryR) (Leishmania infantum, UniProt A4HSF7); construct: HIS; made in house; host or cells: E. coli BL21 (DE3) Rossetta 2; assay: LiTryR oxidoreductase activity assay (DTNB-coupled); format: biochemical; conditions: modified DTNB-coupled assay, 26 °C, HEPES pH 7.5, HIS-LiTryR 7 nM, TS2 1 μM, NADPH 150 μM, inhibitor 0.1-25 μM, no preincubation; IC50 ± SE, three independent experiments in triplicate; SEM; read-out: IC50act, LiTryR oxidoreductase activity
Sequence (A4HSF7 entry or part of it): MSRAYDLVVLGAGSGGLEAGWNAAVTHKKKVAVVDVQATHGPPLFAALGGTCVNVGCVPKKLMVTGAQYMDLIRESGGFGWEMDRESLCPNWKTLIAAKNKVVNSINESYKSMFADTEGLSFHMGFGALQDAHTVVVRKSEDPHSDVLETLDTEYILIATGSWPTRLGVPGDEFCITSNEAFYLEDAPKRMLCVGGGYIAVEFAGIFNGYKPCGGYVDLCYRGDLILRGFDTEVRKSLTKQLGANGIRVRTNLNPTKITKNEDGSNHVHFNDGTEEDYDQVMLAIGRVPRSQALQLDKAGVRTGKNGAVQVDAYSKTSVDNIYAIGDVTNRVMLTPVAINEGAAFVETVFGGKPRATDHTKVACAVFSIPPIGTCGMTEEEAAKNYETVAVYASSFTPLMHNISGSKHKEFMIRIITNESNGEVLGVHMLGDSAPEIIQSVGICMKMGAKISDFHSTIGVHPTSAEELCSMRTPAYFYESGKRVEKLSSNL
Measured pIC50 values are reported for all entries that follow.
Friendly reminder that pIC50 comes from taking -log10 of the concentration in mol/L.

Summary for this compound, CC[C@H](C)[C@H](NC(=O)CNC(=O)[C@@H](NC(=O)[C@H](CO)NC(=O)[C@H](CCC(N)=O)NC(=O)[C@@H](NC(=O)[C@@H](NC(=O)[C@H](CCCCN)NC(=O)[C@@H]1CCCN1C(=O)COCCOCCN(Cc1ccccc1)Cc1ccccc1)[C@@H](C)CC)[C@@H](C)CC)C(C)C)C(N)=O : pIC50 is 5.01

Next:
Summary for this compound, CC[C@H](C)[C@H](NC(=O)CNC(=O)[C@@H](NC(=O)[C@H](CO)NC(=O)[C@H](CCC(N)=O)NC(=O)[C@@H](NC(=O)[C@@H](NC(=O)[C@H](CCCCN)NC(=O)[C@@H]1CCCN1C(=O)COCCOCC[N+](C)(C)Cc1ccccc1)[C@@H](C)CC)[C@@H](C)CC)C(C)C)C(N)=O : pIC50 is 4.74

Summary for this compound, CC[C@H](C)[C@H](NC(=O)CNC(=O)[C@@H](NC(=O)[C@H](CO)NC(=O)[C@H](CCC(N)=O)NC(=O)[C@@H](NC(=O)[C@@H](NC(=O)[C@H](CCCCN)NC(=O)[C@@H]1CCCN1C(=O)COCCNC(=O)Cc1ccccc1)[C@@H](C)CC)[C@@H](C)CC)C(C)C)C(N)=O : pIC50 is 4.65

----------
Measured pIC50 values are reported for all entries that follow.
biological target: Leishmania infantum trypanothione disulfide reductase (LiTryR) (Leishmania infantum); construct: HIS; made in house; host or cells: E. coli BL21 (DE3) Rossetta 2; assay: LiTryR oxidoreductase activity assay (DTNB-coupled); type: biochemical; details: modified DTNB-coupled assay, 26 °C, HEPES pH 7.5, HIS-LiTryR 7 nM, TS2 1 μM, NADPH 150 μM, inhibitor 0.1-25 μM, no preincubation; IC50 ± SE, three independent experiments in triplicate; SEM; read-out: IC50act, LiTryR oxidoreductase activity
Friendly reminder that pIC50 comes from taking -log10 of the concentration in mol/L.

Summary for this compound, CC[C@H](C)[C@H](NC(=O)CNC(=O)[C@@H](NC(=O)[C@H](CO)NC(=O)[C@H](CCC(N)=O)NC(=O)[C@@H](NC(=O)[C@@H](NC(=O)[C@H](CCCCN)NC(=O)[C@@H]1CCCN1C(=O)Cc1ccccc1)[C@@H](C)CC)[C@@H](C)CC)C(C)C)C(N)=O [4a, Ph-CH2-CO-NH-PKIIQSVGI-NH2] : pIC50 is 4.99

Summary for this compound, CC[C@H](C)[C@H](NC(=O)CNC(=O)[C@@H](NC(=O)[C@H](CO)NC(=O)[C@H](CCC(N)=O)NC(=O)[C@@H](NC(=O)[C@@H](NC(=O)[C@H](CCCCN)NC(=O)[C@@H]1CCCN1C(=O)COCCOCCNC(=O)CC12CC3CC(CC(C3)C1)C2)[C@@H](C)CC)[C@@H](C)CC)C(C)C)C(N)=O [1f] : pIC50 is 5.12

Summary for this compound, CC[C@H](C)[C@H](NC(=O)CNC(=O)[C@@H](NC(=O)[C@H](CO)NC(=O)[C@H](CCC(N)=O)NC(=O)[C@@H](NC(=O)[C@@H](NC(=O)[C@H](CCCCN)NC(=O)[C@@H]1CCCN1C(=O)CN1C(=O)c2cccc3cccc1c23)[C@@H](C)CC)[C@@H](C)CC)C(C)C)C(N)=O [4d] : pIC50 is 5.10

Summary for this compound, CC[C@H](C)[C@H](NC(=O)CNC(=O)[C@@H](NC(=O)[C@H](CO)NC(=O)[C@H](CCC(N)=O)NC(=O)[C@@H](NC(=O)[C@@H](NC(=O)[C@H](CCCCN)NC(=O)[C@@H]1CCCN1C(=O)COCCOCCNCc1ccccc1)[C@@H](C)CC)[C@@H](C)CC)C(C)C)C(N)=O [compound 7] : pIC50 is 5.08

Consider the record given below.
Summary for this compound, CC[C@H](C)[C@H](NC(=O)CNC(=O)[C@@H](NC(=O)[C@H](CO)NC(=O)[C@H](CCC(N)=O)NC(=O)[C@@H](NC(=O)[C@@H](NC(=O)[C@H](CCCCN)NC(=O)[C@@H]1CCCN1C(=O)COCCOCC[N+](C)(Cc1ccccc1)Cc1ccccc1)[C@@H](C)CC)[C@@H](C)CC)C(C)C)C(N)=O [compound 10] : pIC50 is 5.04

Origin of values: paper PMC8308777
